Tested on: Enterococcus faecium
Test: Antibacterial activity against Enterococcus faecium 14-2 after 18 to 24 hrs by CLSI M100-S11 method
Type: functional
List of log10 MIC values.
Values reflect log10 of reported MIC (µg/mL).

Q. GET log10 MIC | system: Enterococcus faecium | item: CO/N=C1\CN(c2c(F)cc3c(=O)c(C(=O)O)cn(-c4nc(N)c(F)cc4F)c3c2Cl)CC1CN (configuration not stated)
A. 0.90

Q. GET log10 MIC | system: Enterococcus faecium | item: CO/N=C1\CN(c2nc3c(cc2F)c(=O)c(C(=O)O)cn3-c2nc(N)c(F)cc2F)[C@@H]1CN
A. 1.81

Q. GET log10 MIC | system: Enterococcus faecium | item: CO/N=C1\CCN(c2nc3c(cc2F)c(=O)c(C(=O)O)cn3-c2nc(N)c(F)cc2F)CC1O (configuration not stated)
A. 1.81

Q. GET log10 MIC | system: Enterococcus faecium | item: Nc1nc(-n2cc(C(=O)O)c(=O)c3cc(F)c(N4CC/C(=N\OCc5ccccc5)C(N)C4)nc32)c(F)cc1F (configuration not stated)
A. 1.81

Q. GET log10 MIC | system: Enterococcus faecium | item: CCO/N=C1\CN(c2nc3c(cc2F)c(=O)c(C(=O)O)cn3-c2nc(N)c(F)cc2F)CC1CN (configuration not stated)
A. 0.90

Continuing:
Q. GET log10 MIC | system: Enterococcus faecium | item: C[C@H]1COc2c(N3CCN(C)CC3)c(F)cc3c(=O)c(C(=O)O)cn1c23.C[C@H]1COc2c(N3CCN(C)CC3)c(F)cc3c(=O)c(C(=O)O)cn1c23.O [LEVOFLOXACIN]
A. 0.00

Q. GET log10 MIC | system: Enterococcus faecium | item: CO/N=C1\CN(c2nc3c(cc2F)c(=O)c(C(=O)O)cn3-c2nc(N)c(F)cc2F)CC1CN (configuration not stated)
A. 1.81

Q. GET log10 MIC | system: Enterococcus faecium | item: CC1(CN)CN(c2nc3c(cc2F)c(=O)c(C(=O)O)cn3-c2nc(N)c(F)cc2F)C/C1=N\OCc1ccccc1 (configuration not stated)
A. 0.90

Q. GET log10 MIC | system: Enterococcus faecium | item: CO/N=C1\CCN(c2nc3c(cc2F)c(=O)c(C(=O)O)cn3-c2nc(N)c(F)cc2F)CC1N (configuration not stated)
A. 1.81

Q. GET log10 MIC | system: Enterococcus faecium | item: CO/N=C1\CN(c2nc3c(cc2F)c(=O)c(C(=O)O)cn3-c2nc(N)c(F)cc2F)[C@H]1CN
A. 2.11

Q. GET log10 MIC | system: Enterococcus faecium | item: NC[C@H]1/C(=N/OCc2ccccc2)CN1c1nc2c(cc1F)c(=O)c(C(=O)O)cn2-c1nc(N)c(F)cc1F
A. 1.51

Q. GET log10 MIC | system: Enterococcus faecium | item: CCO/N=C1\CN(c2nc3c(cc2F)c(=O)c(C(=O)O)cn3-c2nc(N)c(F)cc2F)[C@@H]1CN
A. 2.11

Q. GET log10 MIC | system: Enterococcus faecium | item: NCC1CN(c2nc3c(cc2F)c(=O)c(C(=O)O)cn3-c2nc(N)c(F)cc2F)C/C1=N\OCc1ccccc1 (configuration not stated)
A. 1.20

Q. GET log10 MIC | system: Enterococcus faecium | item: CCO/N=C1\CN(c2nc3c(cc2F)c(=O)c(C(=O)O)cn3-c2nc(N)c(F)cc2F)[C@H]1CN
A. 1.51

Q. GET log10 MIC | system: Enterococcus faecium | item: Nc1nc(-n2cc(C(=O)O)c(=O)c3cc(F)c(N4CC/C(=N\OCc5ccccc5)C(O)C4)nc32)c(F)cc1F (configuration not stated)
A. 1.51

Q. GET log10 MIC | system: Enterococcus faecium | item: NC[C@@H]1/C(=N/OCc2ccccc2)CN1c1nc2c(cc1F)c(=O)c(C(=O)O)cn2-c1nc(N)c(F)cc1F
A. 1.51

Q. GET log10 MIC | system: Enterococcus faecium | item: CO/N=C1\CCN(c2c(F)cc3c(=O)c(C(=O)O)cn(-c4nc(N)c(F)cc4F)c3c2Cl)CC1N (configuration not stated)
A. 1.20
